# assay-comment: Drug metabolism in mouse
# Assay type: ADME, organism-based
# cond: in vivo, read-out: Drug metabolism
metabolised values by entry
State just the number; it will be interpreted in %.

Form: compound = `O=C(NCCC1CC1)c1ccc2nc(-c3ccc(Oc4ccccc4Cl)cc3)[nH]c2c1` ; metabolised = 49

Form: compound = `O=C(NCc1nccs1)c1ccc2nc(-c3ccc(Oc4ccccc4Cl)cc3)[nH]c2c1` ; metabolised = 23

Form: compound = `O=C(NCc1ccc(Cl)s1)c1ccc2nc(-c3ccc(Oc4ccccc4Cl)cc3)[nH]c2c1` ; metabolised = 36

* * *

metabolised values by entry
# assay-comment: Drug metabolism in human
# Format: ADME, organism-based
# cond: in vivo, read-out: Drug metabolism
State just the number; it will be interpreted in %.

// below: answered compounds
[[record]]
compound = "OC(c1ccc2[nH]c(-c3ccc(OCc4ccccc4)cc3)nc2c1)c1ccccc1C(F)(F)F (racemic)"
measure_unit = "%"
number = 71

[[record]]
compound = "O=C(NCc1ccc(Cl)s1)c1ccc2[nH]c(-c3ccc(C(=O)c4ccccc4C(F)(F)F)cc3)nc2c1"
measure_unit = "%"
number = 45

[[record]]
compound = "O=C(NCc1nccs1)c1ccc2nc(-c3ccc(Oc4ccccc4Cl)cc3)[nH]c2c1"
measure_unit = "%"
number = 45

[[record]]
compound = "O=C(NCCC1CC1)c1ccc2nc(-c3ccc(Oc4ccccc4Cl)cc3)[nH]c2c1"
measure_unit = "%"
number = 62


Next:
Form: compound = `O=C(NCc1ccc(Cl)s1)c1ccc2nc(-c3ccc(Oc4ccccc4Cl)cc3)[nH]c2c1` ; metabolised = 64
